assay: NCI Yeast Anticancer Drug Screen. Data for the cln2 rad14 strain (AID 165);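 also: 0% = growth equal to vehicle treated cultures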; details: S. cerevisiae cln2 rad14 strain, at 50.0 µM (retest, dose inferred, filed as 5.0), hits give high values
Compounds without any hit were thinned out: in the full panel of roughly 79,000, 15% have a hit.
experimentalEndpoint: growth inhibition (%)
Kindly answer with a numeric value in %, unit omitted.

What value of growth inhibition has been reported for the following compound? `Cc1ncc(Br)c(C(=O)O)n1`
1

Record request: growth inhibition value, item `CCCCCN(CCCCC)C(=S)Nc1ccccc1`
74

growth inhibition lookup needed for CCCCCCCCCCCCCCC(O)C[N+](C)(CCO)CCO (stereo unspecified) , thanks.
98

GET /values?readout=growth inhibition&item= `O=c1c2cc(Br)ccc2ncn1COCc1ccccc1`
-12

Fill in the blank: the reported growth inhibition of `CCOC(=O)c1[nH]cnc1/N=N/c1nc(O)c(C#N)[nH]1` is ____.
99

Bench note: what growth inhibition did CC(=O)c1c2c(cc3c1CC1(C3)Cc3cc4c(c(C(=O)O)c3C1)CCCC4)CCCC2 (stereo unspecified) (tested in a mixture with another compound) show?
99
